Reference source for all entries: ChEMBL document CHEMBL3751680

# measurementDescription: Binding affinity to synthetic ceramic hydroxyapatite type 1 assessed as reduction in bound compound level at 50 uM after 1 hr by NMR spectroscopic analysis relative to control
# Design: scale not given: the % may be the effect or the level left
metric: Activity (%)

>  <molecule>
NCCCC(O)(P(=O)(O)O)P(=O)(O)O

>  <metric>
Activity

>  <unit>
%

>  <valueMeasured>
100

$$$$

a = C[C@]12CC[C@@H]3c4ccc(O)cc4CC[C@H]3[C@@H]1CC[C@@H]2O
b = Oc1ccc(-c2cc3ccc(O)cc3s2)cc1 [RALOXIFENE CORE]
Select the item whose Activity value is smaller, choosing between a and b . Write down the label of the entry you select.
b

* * *

# measurementDescription: Binding affinity to synthetic ceramic hydroxyapatite type 1 assessed as reduction in bound compound level at 50 uM after 1 hr by NMR spectroscopic analysis relative to control
# Set-up: scale not given: the % may be the effect or the level left
metric: Activity (%)

Observe how each entry below is paired with its result.
>  <moleculeSmiles>
O=C(c1ccc(OCCN2CCCCC2)cc1)c1c(-c2ccc(O)cc2)sc2cc(O)ccc12

>  <Activity [%]>
-232

$$$$
>  <moleculeSmiles>
O=C(c1ccc(O)cc1)c1c(-c2ccc(O)cc2)sc2cc(O)ccc12

>  <Activity [%]>
13.3

$$$$
>  <moleculeSmiles>
COc1ccc2c(C(=O)c3ccc(OCCN4CCCCC4)cc3)c(-c3ccc(O)cc3)sc2c1

>  <Activity [%]>
-57.9

$$$$

I = O=C(c1ccc(OCCN2CCCCC2)cc1)c1c(-c2ccccc2)sc2ccccc12
II = COc1ccc(Nc2nc(NCc3ccco3)nc(N/N=C(\C)c3ccc(NC(C)=O)cc3)n2)cc1
Compare I and II by numeric Activity and name the larger one. // return label of chosen record
II

* * *

# Species on record: Canis lupus familiaris
# measurementDescription: Binding affinity to hound bone powder assessed as reduction in bound compound level at 50 uM after 16 hrs by NMR spectroscopic analysis relative to control
# Parameters: scale not given: the % may be the effect or the level left
metric: Activity (%)

>  <moleculeSmiles>
C[C@]12CC[C@@H]3c4ccc(O)cc4CC[C@H]3[C@@H]1CC[C@@H]2O

>  <valueMeasured>
73.9

$$$$
>  <moleculeSmiles>
O=C(c1ccc(O)cc1)c1c(-c2ccc(O)cc2)sc2cc(O)ccc12

>  <valueMeasured>
34.1

$$$$
>  <moleculeSmiles>
NCCCC(O)(P(=O)(O)O)P(=O)(O)O

>  <valueMeasured>
95.6

$$$$
>  <moleculeSmiles>
COc1ccc2c(C(=O)c3ccc(OCCN4CCCCC4)cc3)c(-c3ccc(O)cc3)sc2c1

>  <valueMeasured>
73.9

$$$$
>  <moleculeSmiles>
Oc1ccc(-c2cc3ccc(O)cc3s2)cc1

>  <valueMeasured>
46.4

$$$$
>  <moleculeSmiles>
O=C(c1ccc(OCCN2CCCCC2)cc1)c1c(-c2ccc(O)cc2)sc2cc(O)ccc12

>  <valueMeasured>
99

$$$$

A = O=C(c1ccc(OCCN2CCCCC2)cc1)c1c(-c2ccccc2)sc2ccccc12
B = COc1ccc(Nc2nc(NCc3ccco3)nc(N/N=C(\C)c3ccc(NC(C)=O)cc3)n2)cc1
Returns: the label, A or B , whose recorded Activity is the lower number. Kindly state the label of the option you pick.
B
(B: -0.5%, A: 89%)
